All figures here come from ChEMBL document CHEMBL5674880.

- Test system: CGTH-W-1
- measurement_notes: Antiproliferative activity against human CGTH-W-1 cells after 10 days
- Type: functional, cell-based
- particulars: CGTH-W-1, 240 h
Record form. Attribute: IC50. Fill in for each entry.

Cc1cn(CCN2CCN(c3ccccc3-c3cc(C#N)cc(C(=O)NCCCN4CCCC4)c3)CC2)c2ccccc12 | 2870 nM

// switching to the query compound
Q: For the compound O=C(NC1CN(Cc2cnn(Cc3ccccc3)c2)C1)c1cn(C2CC2)nn1 , what IC50 is on record?
A: > 10000 nM

---

- System: Ramos
- measurement_notes: Antiproliferative activity against human Ramos cells after 10 days
- Type: functional, cell-based
- particulars: 240 h
measurement_type: pIC50
Give bare numbers, as −log10 of the molar value.

Q: Name the reported pIC50 value associated with the molecule Cc1cn(CCN2CCN(c3ccccc3-c3cc(C#N)cc(C(=O)NCCCN4CCCC4)c3)CC2)c2ccccc12
A: 5.98
